- Protocol Notes: NCI Yeast Anticancer Drug Screen. Data for the mlh1 rad18 strain (AID 175)
- Assay Setup: S. cerevisiae mlh1 rad18 strain growth inhibition; at 50.0 µM
This is part of a sample that, as a whole, favours compounds with a hit. Of some 79,000 tested, about 15% had one in any assay. Calls of active or inactive are those of the source. Rule as the data show it: active = growth inhibition above about 70%; inactive = the rest.
In this exercise, the only acceptable responses are active, inactive

Worked examples, 3 molecules total:
COc1ccc(/C(N)=N/OCc2ccc(C#N)cc2)cc1 ... inactive
O=S1(=O)CCCC1C(O)c1ccccc1 (configuration not stated) ... inactive
NC(=O)CCC1CCCCN1 (configuration not stated) ... inactive

How did this test come out for CCc1cccc(C(C)C)c1NC(=O)C(=O)C(CC(=O)Nc1ccc(Cl)c(Cl)c1)C(=O)OC (configuration not stated) ?
inactive

// query: CCOc1ccc(NCC(=O)N2CC(=O)Nc3ccccc32)cc1
inactive

// query: NC(=O)N1CCc2ccccc2C1c1ccccc1 (configuration not stated)
inactive

// query: [Cu+2].[NH-]C(Cc1ccc(O)cc1)C(=O)O.[NH-]C(Cc1ccc(O)cc1)C(=O)O (configuration not stated)
inactive

// query: CCOC(=O)C12CC(COc3ccc([N+](=O)[O-])cc3)ON1OC(COc1ccc([N+](=O)[O-])cc1)C2 (configuration not stated)
inactive

// query: CCN(CC)Cc1ncccc1O
inactive

// query: O=C1c2ccccc2SC[C@@H]2CCCN12
inactive

// query: CCOC(=O)NC(=S)C1=C(N2CCOCC2)CCC1
inactive

// query: COc1cccc(/C=C/C(=O)c2sc(C(N)=S)nc2C)c1O
inactive

// query: Cc1cccc(OS(=O)(=O)c2ccccc2)c1
inactive

// query: COc1cc(NC(N)=O)ccc1Nc1c2ccc(N)cc2nc2cc(N)ccc12
inactive

// query: c1ccc2c(c1)ccc1cc3c(ccc4ccccc43)cc12
inactive

###

- Protocol Notes: NCI Yeast Anticancer Drug Screen. Data for the cln2 rad14 strain (AID 165);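 also: 0% = growth equal to vehicle treated cultures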
- Assay Setup: S. cerevisiae cln2 rad14 strain, at 50.0 µM, active compounds read high
Compounds without any hit were thinned out: in the full panel of roughly 79,000, 15% have a hit.
growth inhibition reference
The response must be a number in % with no trailing unit.

Consider the molecule shown here: CN1CC2=C(NC(=S)NC2c2ccccc2)/C(=C/c2ccccc2)C1 (stereo not drawn) What is its recorded growth inhibition?
6.8

// query: O=C1c2cc(CCl)sc2C(=O)c2ccsc21
89.8

// query: Cc1ccccc1C1(O)c2cccc3cccc(c23)C1(O)c1ccccc1C (stereo not drawn)
-10.9

###

- Protocol Notes: NCI Yeast Anticancer Drug Screen. Data for the rad50 strain (AID 155);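 also: 0% = growth of vehicle-only cultures of the same strain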
- Assay Setup: S. cerevisiae rad50 strain growth inhibition; at 50.0 µM; active compounds read high
Compounds without any hit were thinned out: in the full panel of roughly 79,000, 15% have a hit.
Parameter Measured: growth inhibition (%)
The response must be a number in % with no trailing unit.

c1ccc(N=C2SC(c3ccccc3)CN2C23CC4CC(CC(C4)C2)C3)cc1 (stereo unspecified) ... -18.4
Cc1ccnn1CCc1ccc(Cl)cc1Cl ... 18.1
O=C1c2ccccc2C(=O)c2c1ccc1c2N=C(c2ccc(F)cc2)CC(c2ccc(Cl)c(Cl)c2)N1 (stereo unspecified) ... 58
O=C(O)/C=C\c1ccc(OC(=O)c2ccccc2)cc1 ... -1.1
CCCCOC(=O)C1=NNC(=O)C1 ... -17.6

Consider the compound shown here: O=C(N/N=C\c1ccccn1)Nc1ccc(N=Nc2ccccc2)cc1 What is its recorded growth inhibition?
6.55

// query: O=C1NNC2NC(=O)C3(NN2C1=O)c1ccccc1-c1ccccc13 (stereo unspecified)
-18

// query: Cc1ccc(NC(=O)Nc2cccc(Cl)c2)cc1C
-0.1

// query: Cc1ccc(S(=O)(=O)N/N=C(/c2ccccc2)c2ccsc2C)cc1
6.7

// query: Cc1cc2c(C(C)C)c(O)c(O)c(C=Nc3ccc4ccccc4c3)c2c(O)c1-c1c(C)cc2c(C(C)C)c(O)c(O)c(C=Nc3ccc4ccccc4c3)c2c1O
7.3

// query: O=C1CCC(=O)N1C(c1ccccc1)(c1ccccc1)N1C(=O)CCC1=O
-20.9

// query: Nc1ccc(CCCCOc2ccccc2)cc1
98.6

###

- Protocol Notes: NCI Yeast Anticancer Drug Screen. Data for the mlh1 rad18 strain (AID 175)
- Assay Setup: S. cerevisiae mlh1 rad18 strain growth inhibition; at 50.0 µM; active compounds read high
About 79,000 compounds went through this panel and 15% of them were active in at least one assay; those are over-represented in the sample as a whole.
growth inhibition reference
The response must be a number in % with no trailing unit.

The cases that follow already have their growth inhibition on record.
COc1ccc(CCN2CN=C(Sc3ccc([N+](=O)[O-])cc3Cl)NC2)cc1OC ... 11.1
Cc1nc(SCC(=O)Nc2ccc(Cl)cc2)c2sc(=S)n(-c3ccccc3)c2n1 ... 5.4
CN(C)/N=C1/CCC(C(F)(F)F)(C(F)(F)F)O1 ... -18.4
CN(C)CCC(OC(=O)c1ccccc1Cl)c1ccccc1 (stereo not drawn) ... 13.1
NS(=O)(=O)c1ccccc1 ... 15.4
N/C(=N\OC(=O)Nc1ccc(CSc2ccc(Cl)cc2)o1)c1ccccn1 ... -31.6
[Br][Pt+2][Br].[NH-]c1cccc(F)c1.[NH-]c1cccc(F)c1 ... 46.3

In the following, a different compound is considered.
Consider the compound shown here: Cc1[nH]c(=O)[nH]c(=O)c1CCS What is its recorded growth inhibition?
-13.2

###

growth inhibition reference
- Protocol Notes: NCI Yeast Anticancer Drug Screen. Data for the rad50 strain (AID 155);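 also: 0% = growth of vehicle-only cultures of the same strain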
- Assay Setup: S. cerevisiae rad50 strain growth inhibition; at 50.0 µM; active compounds read high
About 79,000 compounds went through this panel and 15% of them were active in at least one assay; those are over-represented in the sample as a whole.
The response must be a number in % with no trailing unit.

O=c1[nH]c(Br)nc2c(Br)c[nH]c12 ... -17.1
OC1CNc2c(ccc3ccccc23)C1 (stereo unspecified) ... 10.7
O=C(CCCl)OC1CCCC1 ... 1.5

In the following, a different compound is considered.
Consider the compound shown here: COc1ccc(C(C)Nc2cc(OC)c(OC)c(OC)c2)cc1 (stereo unspecified) What is its recorded growth inhibition?
-20.2

###

- Protocol Notes: NCI Yeast Anticancer Drug Screen. Data for the rad50 strain (AID 155);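 also: 0% = growth of vehicle-only cultures of the same strain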
- Assay Setup: S. cerevisiae rad50 strain growth inhibition; at 50.0 µM; active compounds read high
Compounds without any hit were thinned out: in the full panel of roughly 79,000, 15% have a hit.
growth inhibition reference
The response must be a number in % with no trailing unit.

CN(C)C1=C(c2ccccc2)C(=O)C(c2ccccc2)=C1c1ccccc1 ... 39.8
C[C@]12CCC(=O)C=C1CC[C@@H]1C2=CC[C@]2(C)/C(=C\CO)CC[C@@H]12 ... 7.5
Oc1ccc(O)c(-n2cccn2)c1-n1cccn1 ... -0.85

Consider the molecule shown here: O=C1C=CC2CCC1C2 (stereo not given) What is its recorded growth inhibition?
24.8

// query: CC1CC(C)(C)C(C[NH-])C1[NH-].[Cl][Pt+2][Cl] (stereo not given)
23.8

###

growth inhibition reference
- Protocol Notes: NCI Yeast Anticancer Drug Screen. Data for the rad50 strain (AID 155);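 also: 0% = growth of vehicle-only cultures of the same strain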
- Assay Setup: S. cerevisiae rad50 strain growth inhibition; at 50.0 µM; active compounds read high
The panel holds about 79,000 compounds, 15% with a hit somewhere; the sample as a whole holds those more often.
The response must be a number in % with no trailing unit.

The cases that follow already have their growth inhibition on record.
O=[N+]([O-])c1ccc(Oc2ccc(S(=O)(=O)O)cc2)cc1 ... 13.8
O=C(/C=C/c1ccco1)N1CCN(Cc2ccccc2)CC1 ... 3.7
O=C(CCl)N1C(=O)NC(c2ccc(Cl)cc2)(c2ccc(Cl)cc2)C1=O ... 6.9

Consider the compound shown here: CC(C)C(=O)Nc1ccccc1 What is its recorded growth inhibition?
2.9

// query: O=P1(O)Oc2ccc3ccccc3c2-c2c(ccc3ccccc23)O1
-0.4

// query: C[CH2][GeH][CH2]C.C[CH2][Ge]([CH2]C)[CH2]C
95.2

// query: NC(=O)c1[nH]cnc1N
12.6

// query: O=C(NC1c2ccccc2Oc2ccccc21)OCCCCl
-11.2

// query: O=C(O)c1ccc2sc3ccccc3c(=O)c2c1
14.9

###

- Protocol Notes: NCI Yeast Anticancer Drug Screen. Data for the cln2 rad14 strain (AID 165);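 also: 0% = growth equal to vehicle treated cultures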
- Assay Setup: S. cerevisiae cln2 rad14 strain, at 50.0 µM, active compounds read high
- Experimental: Growth inhibition of yeast strains with defined genetic alterations is measured as a screen for potential anti-cancer activity. Selected strains with alterations in DNA damage repair or cell cycle control were exposed to compounds and growth inhibition was measured relative to vehicle treated controls. The strain used in this assay is cln2 rad14
This is part of a sample that, as a whole, favours compounds with a hit. Of some 79,000 tested, about 15% had one in any assay.
Classification by growth inhibition | ranges: low group = under -20%, middle group = from -20% up to 10%, high group = 10% and over

Worked examples, 8 compounds total:
Cc1c(C(=O)O)sc2ccc([N+](=O)[O-])cc12 ... low group
CC(=O)N/C(=C\c1ccc(Cc2nc3c([nH]2)C(=O)c2ccccc2C3=O)cc1)c1nc2c([nH]1)C(=O)c1ccccc1C2=O ... high group
C(#CCOc1ccc2c(c1)OCO2)COc1ccc2c(c1)OCO2 ... middle group
NC(=S)c1ccncc1 ... high group
Cc1cccc[n+]1CC(=O)c1ccc(Cl)cc1 ... low group
C[CH2][Ge]([CH2]C)[CH2]C.C[CH2][Ge]([CH2]C)[CH2]C ... low group
O=C1c2ccccc2-c2nc(-c3ccccc3)cc3c2c1nc1ccccc13 ... high group
COc1ccc(C2=Nc3cccc4c3N(CCC4)C2c2ccc(OC)cc2)cc1 (stereo unspecified) ... middle group

Exam item: assign CSC(=S)S(=O)(=O)C12CC3CC(CC(C3)C1)C2 to the correct category.
high group

// query: COC(=O)C(=O)C(C#N)c1c(Cl)cccc1Cl (stereo unspecified)
middle group
